Test: Cytotoxicity against human TZM-bl cells assessed as reduction in cell viability incubated for 48 hrs by CellTiter 96 aqueous nonradioactive cell proliferation assay
Type: cell-based
Some compounds, each annotated with its measured CC50 at 48 h.
assay_readout: CC50 at 48 h

INSERT INTO results (compound, assay_readout, experimental_value) VALUES
  ('COc1ccc(C[C@H](NC(=O)CCC(=O)NCCOCCOCCOCCOCCOCCOCCOCCOCCOCCNC(=O)CCC(=O)N[C@@H](Cc2ccc(OC)cc2)C(=O)Nc2ccc(C(=O)N[C@@H](Cc3c[nH]c4ccccc34)C(=O)O)cc2OCCc2c[nH]c3ccccc23)C(=O)Nc2ccc(C(=O)N[C@@H](Cc3c[nH]c4ccccc34)C(=O)O)cc2OCCc2c[nH]c3ccccc23)cc1', 'CC50 at 48 h', '> 50 µM'),
  ('O=C(O)C[C@H](NC(=O)CCC(=O)NCCOCCOCCOCCOCCOCCOCCOCCOCCOCCNC(=O)CCC(=O)N[C@@H](CC(=O)O)C(=O)Nc1ccc(C(=O)N[C@@H](Cc2c[nH]c3ccccc23)C(=O)O)cc1OCCc1c[nH]c2ccccc12)C(=O)Nc1ccc(C(=O)N[C@@H](Cc2c[nH]c3ccccc23)C(=O)O)cc1OCCc1c[nH]c2ccccc12', 'CC50 at 48 h', '> 50 µM'),
  ('Cc1cn([C@H]2C[C@H](N=[N+]=[N-])[C@@H](CO)O2)c(=O)[nH]c1=O [ZIDOVUDINE]', 'CC50 at 48 h', '> 100 µM'),
  ('CC(C)C[C@H](NC(=O)c1ccc(NC(=O)[C@H](Cc2c[nH]c3ccccc23)NC(=O)CCC(=O)NCCOCCOCCOCCOCCOCCOCCOCCOCCOCCOCCOCCNC(=O)CCC(=O)N[C@@H](Cc2c[nH]c3ccccc23)C(=O)Nc2ccc(C(=O)N[C@@H](CC(C)C)C(=O)O)cc2OCCc2c[nH]c3ccccc23)c(OCCc2c[nH]c3ccccc23)c1)C(=O)O', 'CC50 at 48 h', '> 50 µM');

* * *

Assay: Cytotoxicity against human TZM-bl cells assessed as reduction in cell viability incubated for 48 hrs by CellTiter 96 aqueous nonradioactive cell proliferation assay
Assay type: cell-based
Each entry below lists one item and its recorded CC50 at 48 h value.
assay_readout: CC50 at 48 h

INSERT INTO assay_data (cpd_smiles, experimental_value) VALUES
  ('CC(C)C[C@H](NC(=O)c1ccc(NC(=O)[C@H](Cc2c[nH]c3ccccc23)NC(=O)CCC(=O)NCCOCCOCCOCCOCCOCCOCCOCCOCCOCCNC(=O)CCC(=O)O)c(OCCc2c[nH]c3ccccc23)c1)C(=O)O', '> 50 µM'),
  ('CC(C)C[C@H](NC(=O)c1ccc(NC(=O)[C@H](Cc2c[nH]c3ccccc23)NC(=O)CCC(=O)NCCOCCNC(=O)CCC(=O)N[C@@H](Cc2c[nH]c3ccccc23)C(=O)Nc2ccc(C(=O)N[C@@H](CC(C)C)C(=O)O)cc2OCCc2c[nH]c3ccccc23)c(OCCc2c[nH]c3ccccc23)c1)C(=O)O', '> 50 µM');

* * *

Assay: Cytotoxicity against human TZM-bl cells assessed as reduction in cell viability incubated for 48 hrs by CellTiter 96 aqueous nonradioactive cell proliferation assay
Type: cell-based
Recorded CC50 at 48 h by entry
assay_readout: CC50 at 48 h

INSERT INTO assay_data (cpd_smiles, experimental_value) VALUES
  ('CC(C)C[C@H](NC(=O)c1ccc(NC(=O)[C@H](Cc2c[nH]c3ccccc23)NC(=O)CCC(=O)NCCOCCOCCOCCOCCOCCOCCOCCOCCOCCNC(=O)CCC(=O)N[C@@H](Cc2c[nH]c3ccccc23)C(=O)Nc2ccc(C(=O)N[C@@H](CC(C)C)C(=O)O)cc2OCCc2c[nH]c3ccccc23)c(OCCc2c[nH]c3ccccc23)c1)C(=O)O', '> 50 µM'),
  ('CC(C)C[C@H](NC(=O)c1ccc(NC(=O)[C@H](Cc2c[nH]c3ccccc23)NC(=O)CCC(=O)NCCOCCOCCOCCNC(=O)CCC(=O)N[C@@H](Cc2c[nH]c3ccccc23)C(=O)Nc2ccc(C(=O)N[C@@H](CC(C)C)C(=O)O)cc2OCCc2c[nH]c3ccccc23)c(OCCc2c[nH]c3ccccc23)c1)C(=O)O', '> 50 µM');

* * *

Experiment: Cytotoxicity against human TZM-bl cells assessed as reduction in cell viability incubated for 48 hrs by CellTiter 96 aqueous nonradioactive cell proliferation assay
Type: cell-based
assay_readout: CC50 at 48 h

INSERT INTO results (cpd_smiles, experimental_value) VALUES
  ('N[C@@H](CC(=O)O)C(=O)Nc1ccc(C(=O)N[C@@H](Cc2c[nH]c3ccccc23)C(=O)O)cc1OCCc1c[nH]c2ccccc12', '> 50 µM'),
  ('CC(C)C[C@H](NC(=O)c1ccc(NC(=O)[C@@H](N)Cc2c[nH]c3ccccc23)c(OCCc2c[nH]c3ccccc23)c1)C(=O)O', '> 50 µM'),
  ('CC(C)C[C@H](NC(=O)c1ccc(NC(=O)[C@H](Cc2c[nH]c3ccccc23)NC(=O)CCC(=O)NCCOCCOCCOCCOCCOCCNC(=O)CCC(=O)N[C@@H](Cc2c[nH]c3ccccc23)C(=O)Nc2ccc(C(=O)N[C@@H](CC(C)C)C(=O)O)cc2OCCc2c[nH]c3ccccc23)c(OCCc2c[nH]c3ccccc23)c1)C(=O)O', '> 50 µM');

* * *

Assay: Cytotoxicity against human TZM-bl cells assessed as reduction in cell viability incubated for 48 hrs by CellTiter 96 aqueous nonradioactive cell proliferation assay
Type: cell-based
assay_readout: CC50 at 48 h

INSERT INTO assay_data (cpd_smiles, experimental_value) VALUES
  ('CC(C)C[C@H](NC(=O)c1ccc(NC(=O)[C@H](Cc2c[nH]c3ccccc23)NC(=O)CCC(=O)NCCOCCOCCOCCOCCOCCOCCOCCNC(=O)CCC(=O)N[C@@H](Cc2c[nH]c3ccccc23)C(=O)Nc2ccc(C(=O)N[C@@H](CC(C)C)C(=O)O)cc2OCCc2c[nH]c3ccccc23)c(OCCc2c[nH]c3ccccc23)c1)C(=O)O', '> 50 µM'),
  ('COc1ccc(C[C@H](N)C(=O)Nc2ccc(C(=O)N[C@@H](Cc3c[nH]c4ccccc34)C(=O)O)cc2OCCc2c[nH]c3ccccc23)cc1', '> 50 µM');
